Value source: paper PMC12529666

# Test system: AGO2 L192P (Homo sapiens, UniProt Q9UKV8 1-859, L192P;S387D;S824A;S828D;S831D;S834A)
# Sequence (Q9UKV8 whole entry L192P/S387D/S824A/S828D/S831D/S834A): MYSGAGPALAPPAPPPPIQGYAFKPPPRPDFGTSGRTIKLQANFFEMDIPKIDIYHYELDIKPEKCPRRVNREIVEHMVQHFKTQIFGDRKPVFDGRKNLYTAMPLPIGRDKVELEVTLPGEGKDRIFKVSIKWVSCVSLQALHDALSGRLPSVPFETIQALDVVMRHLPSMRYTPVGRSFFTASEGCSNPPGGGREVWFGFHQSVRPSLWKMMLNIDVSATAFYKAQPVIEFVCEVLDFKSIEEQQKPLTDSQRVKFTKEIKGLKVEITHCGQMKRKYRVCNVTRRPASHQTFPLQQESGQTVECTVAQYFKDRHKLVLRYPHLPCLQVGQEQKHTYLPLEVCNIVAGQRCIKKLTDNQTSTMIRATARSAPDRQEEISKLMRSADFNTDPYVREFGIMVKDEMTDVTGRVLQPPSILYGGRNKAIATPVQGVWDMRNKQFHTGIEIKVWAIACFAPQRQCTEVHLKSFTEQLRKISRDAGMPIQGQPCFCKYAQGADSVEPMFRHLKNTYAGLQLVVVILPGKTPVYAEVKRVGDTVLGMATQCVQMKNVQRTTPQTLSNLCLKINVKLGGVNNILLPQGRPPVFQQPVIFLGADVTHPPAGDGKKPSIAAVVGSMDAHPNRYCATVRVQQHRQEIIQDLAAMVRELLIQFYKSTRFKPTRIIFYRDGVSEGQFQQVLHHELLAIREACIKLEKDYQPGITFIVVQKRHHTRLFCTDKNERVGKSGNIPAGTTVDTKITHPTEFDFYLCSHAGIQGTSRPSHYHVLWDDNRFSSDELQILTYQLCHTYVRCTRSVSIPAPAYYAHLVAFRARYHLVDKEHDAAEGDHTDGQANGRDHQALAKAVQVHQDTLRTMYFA
# Experimental details: RNA Bind-n-Seq (nitrocellulose filter binding and sequencing); miR-122 guide loaded in AGO2; 60 min incubation; 30 mM Tris pH 8.0, 100 mM potassium acetate, 2 mM magnesium acetate, 0.5 mM TCEP, 0.005% NP-40, 0.01 mg/ml yeast tRNA; 3 nM AGO2-miR-122, 100 nM RNA library; 60; high values mean tight binding
# Condition parameters: protein: recombinant; tags: His6 (N-terminal, pFastBac HTA)
Property name: binding signal

// known answers, use as guide
Binder	Result
ATGTTTCG (ssRNA, constant regions annealed to DNA blockers; guide miR-122 5' phosphate) RNA 1: GAGUUCUACAGUCCGACGAUCCCAACAUGUUUCGCACCUGGAAUUCUCGGGUGCCAA RNA 2: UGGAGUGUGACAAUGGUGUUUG DNA 1: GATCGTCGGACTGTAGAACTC DNA 2: TTGGCACCCGAGAATTCCA	0.353 fold enrichment over input
ACATTTTG (ssRNA, constant regions annealed to DNA blockers; guide miR-122 5' phosphate) RNA 1: GAGUUCUACAGUCCGACGAUCCCAACACAUUUUGCACCUGGAAUUCUCGGGUGCCAA RNA 2: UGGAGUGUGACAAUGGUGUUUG DNA 1: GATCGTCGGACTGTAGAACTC DNA 2: TTGGCACCCGAGAATTCCA	0.41 fold enrichment over input
GTGTCTCG (ssRNA, constant regions annealed to DNA blockers; guide miR-122 5' phosphate) RNA 1: GAGUUCUACAGUCCGACGAUCCCAACGUGUCUCGCACCUGGAAUUCUCGGGUGCCAA RNA 2: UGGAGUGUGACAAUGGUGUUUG DNA 1: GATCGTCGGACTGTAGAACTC DNA 2: TTGGCACCCGAGAATTCCA	0.345 fold enrichment over input

Please examine the following record next.
Request: Given ATGTCCTG (ssRNA, constant regions annealed to DNA blockers; guide miR-122 5' phosphate) RNA 1: GAGUUCUACAGUCCGACGAUCCCAACAUGUCCUGCACCUGGAAUUCUCGGGUGCCAA RNA 2: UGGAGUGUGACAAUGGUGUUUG DNA 1: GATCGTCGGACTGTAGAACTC DNA 2: TTGGCACCCGAGAATTCCA , respond with its binding signal.
Response: 0.343 fold enrichment over input
